In this section we review reported growth values for a set of compounds.
Test system: CCRF-CEM leukemia
assay-info: NCI-60 one-dose screen, 48 h (100 = growth as untreated, 0 = no growth, -100 = all killed)
measurement-setup: 10 µM unless noted
The panel holds about 83,000 compounds, 20% with a hit somewhere; the sample as a whole holds those more often.
Dear colleague, please return just the value in %, with no unit written.

Please review the following examples before continuing.
CN1CCN(Cc2ccc(NC(=O)c3[nH]ncc3Nc3cc(OC4CCCC4)ncn3)cc2)CC1    5.67
O=C1/C(=C/c2cccc(O)c2)COc2ccc(O)cc21    8.33
COc1cc(OC)cc(N2C(=O)N(Cc3ccc(C(C)(C)C)cc3)c3ccccc3S2(=O)=O)c1    84.7
COc1ccc(-n2c(C(O)c3ccccc3)n[nH]c2=S)cc1 (centres undefined)    98.4
O=c1oc2ccc(Br)cc2c(=O)n1-c1ccc(Br)cc1F    9

In plain terms, O=C(c1ccccc1)N(C(=S)NCCc1ccc(Cl)cc1)c1ccccc1 has a documented growth of 61.3

C=CCN1C(=O)/C(=c2\sc3n(c2=O)NC2C(N=3)N(CC)C(=O)N2CC)c2ccccc21 (centres undefined) has a reported growth of 24.4

Field growth (entry COC(=O)[C@H](NC(=O)C1(C)CCC[C@]2(C)[C@H]3C[C@H]4C(C(C)C)=C[C@]3(CC[C@@H]12)[C@@H]1C(=O)CCC(=O)[C@@H]14)C(C)C (some centres undefined) ) reads 104

Reported growth for COc1ccc(-c2cc(=O)c3c(OC)c4ccoc4c(/C=C/C=O)c3o2)cc1 was 0.782

Lookup result for O=C(Nc1ccccc1O)c1ccc(-c2ccc(Cl)cc2Cl)o1 ; measured growth: 75.1

---

Tested on: RXF 393 renal
assay-info: NCI-60 one-dose screen, 48 h
measurement-setup: 10 µM unless noted
About 83,000 compounds went through this panel and 20% of them were active in at least one assay; those are over-represented in the sample as a whole. Active and inactive are the calls of the source. The calls were made as follows: active = growth percent below 10; inactive = the rest.
Just give me one of these, please: active, inactive

Request: # fetch the recorded call for COc1cccc(-c2nn(C)c3sc(C(=O)NCCN4CCN(c5ccccc5F)CC4)cc23)c1 here
Response: inactive

Request: Please let me know the test result on file for CCn1c(-c2nonc2Nc2ccc(OC)cc2)nc2ccccc21 .
Response: inactive

Request: What classification did CCOC(=O)c1c(Cl)c2c(n1Cc1ccccc1)-c1oncc1CCC2 end up with in this test?
Response: inactive

Request: // outcome(item) with item = CCCCc1c(CCC)c(=N)c2ccccc2n1C
Response: inactive

Request: Just curious, what result did O=c1c(-c2nc3ccccc3[nH]2)cc2ccccc2n1Cc1cn(Cc2ccc(F)cc2)nn1 get here?
Response: active

Request: Look up the recorded call for CC(C)C[C@H](C(=O)N[C@H](C(N)=O)C(C)C)N1CC=CCN(OCc2ccccc2)S1(=O)=O in this test.
Response: inactive

Request: For COc1ccc(/C=C2\SC(=Nc3ccccc3)NC2=O)cc1 , what call appears in the results of this test?
Response: active

Request: What is the recorded call for this molecule in the test? CCOc1cccc(/C=N\Nc2nc(=O)cc(C(=O)OC)s2)c1O
Response: inactive

Request: Could you check what this test reported for CCOC(=O)C1(Cc2ccccc2)CCN(Cc2cccc(OC)c2O)CC1 ?
Response: active

Request: Tell me the assay call for CC1=C(C(=O)OCC2CCN(C(=O)OC(C)(C)C)CC2)[C@@H](c2cccc(C#N)c2)C2=C(CC(C)(C)CC2=O)N1 please.
Response: inactive

Request: Each molecule tested received a call. Report the one for COc1ccc(/C=C2/SC(=O)N(CC(=O)N3CCN(c4cc5c(cc4F)c(=O)c(C(=O)O)cn5C4CC4)CC3)C2=O)cc1 .
Response: inactive
